B1: LINE1-full (parent)
chain: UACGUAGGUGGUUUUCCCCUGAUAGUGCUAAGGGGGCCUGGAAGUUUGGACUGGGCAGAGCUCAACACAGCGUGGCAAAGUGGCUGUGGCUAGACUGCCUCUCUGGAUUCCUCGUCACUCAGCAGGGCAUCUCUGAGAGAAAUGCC

variants of: B1; assay: self-cleavage, relative activity (ratio to wild type); higher = more cleavage; in vitro, sequencing; the parent is a self-cleaving ribozyme
Respond with t for self-cleavage values of 0.9 and above, f for values below.

{"residue_sequence": "UACGUAGGUGGUUUUCCCCUGAUAGUGCUAAGGGGGCCUGGAAGUUAGGACUGGGCAGAGCUCAACACAGCGUGGCAAAGUGGCUGUGGCUAGACAGCCUCUCUGGAUUCCUCGUCACUCAGCAGGGCAUCUCUGAGAGAAAUGCC [U47A U96A]", "class": "f"}
{"residue_sequence": "UACGUAGGUGGUUUUCCCCUGAUAGUGCUAAGGGGGCCUGGAAGCUUGGUCUGGGCAGAGCUCAACACAGCGUGGCAAAGUGGCUGUGGCUAGACUGCCUCUCUGGAUUCCUCGUCACUCAGCAGGGCAUCUCUGAGAGAAAUGCC [U45C A50U]", "class": "t"}
{"residue_sequence": "UACGUAGGUGGUUUUCCCCUGAUGGUGCUAAGGGGGCCUGGAAGUUUGGACUGGGCAGAGCUCAACACAGCGUGGCAAAGUGGCUGUGGCUAGACUGCCUCUCUGGAUUCCUCGUCACUCAGCAGGGCAUCUCUGAGAGAAGUGCC [A24G A142G]", "class": "t"}
{"residue_sequence": "UACGUAGGUGGUUUUCCCCCGAAAGUGCUAAGGGGGCCUGGAAGUUUGGACUGGGCAGAGCUCAACACAGCGUGGCAAAGUGGCUGUGGCUAGACUGCCUCUCUGGAUUCCUCGUCACUCAGCAGGGCAUCUCUGAGAGAAAUGCC [U20C U23A]", "class": "t"}
{"residue_sequence": "UACGUAGGUGGUUUUCCCCUGAUAGCGCUAAGGGGGCCUGGAAGUUUGGACUGGGCAGAGCUCAACACAGCGUGGCAAAGUGGCUGAGGCUAGACUGCCUCUCUGGAUUCCUCGUCACUCAGCAGGGCAUCUCUGAGAGAAAUGCC [U26C U87A]", "class": "f"}
{"residue_sequence": "UACGUGGGUGGUUUACCCCUGAUAGUGCUAAGGGGGCCUGGAAGUUUGGACUGGGCAGAGCUCAACACAGCGUGGCAAAGUGGCUGUGGCUAGACUGCCUCUCUGGAUUCCUCGUCACUCAGCAGGGCAUCUCUGAGAGAAAUGCC [A6G U15A]", "class": "f"}
{"residue_sequence": "UGCGUAGGUGGUUUUCCCCUGAUAGUGCUAAGGGGGCCUGGAAGUUUGGACUGGGCAGAGCUCAACACAGCGUGGCAAAGUGGCUGUGGCUAGACUGCCUCUCAGGAUUCCUCGUCACUCAGCAGGGCAUCUCUGAGAGAAAUGCC [A2G U104A]", "class": "t"}
{"residue_sequence": "UACGUAGGUGGUUUUCCCCUGAUAGUGCUAAGGGGGCCUGGAAGUUUGGACUGGGCAGAGCUCAACACAGCGUGGCAAAGUGGCUGUGGCUAGACUGCCUCUCUGGAUUCCUUGUCCCUCAGCAGGGCAUCUCUGAGAGAAAUGCC [C113U A117C]", "class": "t"}
{"residue_sequence": "UACGUAGGUGGUUUUCCCCUGAUAGUGCUAAGGGGGCCUGGAAGUUUGGACUGGGCAGAGCUCAACACAGCGUGGCAAAGUGGCUGCGGCUAGACCGCCUCUCUGGAUUCCUCGUCACUCAGCAGGGCAUCUCUGAGAGAAAUGCC [U87C U96C]", "class": "f"}
{"residue_sequence": "UACGUAGGUGGUUUUCCCCUGAUAGUGCUAGGGGGGCCUGGAAGUUUGGACUGGGCAGAGCUCAACACAGCGCGGCAAAGUGGCUGUGGCUAGACUGCCUCUCUGGAUUCCUCGUCACUCAGCAGGGCAUCUCUGAGAGAAAUGCC [A31G U73C]", "class": "f"}
{"residue_sequence": "UACGUAGGUGGUUUUCCCCUGAUAGUGCUAAGGGGGCCUGGAAGUUUGGACUGGGCAGAGCUCUACACAGCGUGGCAAAGUGGCUGUGGCUAGACUGCCUCUCUGGAUCCCUCGUCACUCAGCAGGGCAUCUCUGAGAGAAAUGCC [A64U U109C]", "class": "f"}
{"residue_sequence": "UACGUAGGUGGUUUUCCCCUGAUAGUGCUAAGGGGGCCUGGAAGUUUGUACUGGGCAGAGCUCAACACAGCGUGGUAAAGUGGCUGUGGCUAGACUGCCUCUCUGGAUUCCUCGUCACUCAGCAGGGCAUCUCUGAGAGAAAUGCC [G49U C76U]", "class": "t"}
{"residue_sequence": "UACGUAGGUGGUUUUCCCCUGAUAGUGCUAAGGGGGCCUGGAAGUUUGGAAUGGGCAGAGCUCAACACAGCGUGGCAAAGUGGCUGUGGCUAGACUGCCCCUCUGGAUUCCUCGUCACUCAGCAGGGCAUCUCUGAGAGAAAUGCC [C51A U100C]", "class": "t"}
{"residue_sequence": "UACGUAGUUGGUUUUCCCCUGAUAGUGCUAAGGGGGCCUGGAAGUUUGGACUGGGCAGAGCUCAACACAGCGUGGCAAAGUGGCUGUGGCUAGACUGCCUCUCUGGAUUCCUCGUCACUCAGCUGGGCAUCUCUGAGAGAAAUGCC [G8U A124U]", "class": "t"}
{"residue_sequence": "UACGUAGGUGGUUUUCCCCUGAUAGUGCUUAGGGGGCCUGGAAGUUUGGACUGGGCAGAGCUCAACACAGCGUGGCAAAGUGGCUGUGGCUAGACUGCCUCUCUGGAUUCCUCGUCACUCAGCAGGGCAUCUCCGAGAGAAAUGCC [A30U U134C]", "class": "t"}
{"residue_sequence": "UACGUAGGUGGUUUUCCCCUGAUAGAGCUAAGGGGGCCUGGAAGUUUGGACUGGGCAGAGCUCAACACAGCGUGGCAAAGUAGCUGUGGCUAGACUGCCUCUCUGGAUUCCUCGUCACUCAGCAGGGCAUCUCUGAGAGAAAUGCC [U26A G82A]", "class": "t"}
{"residue_sequence": "UACGUAGGUGGUUUUCCCCUGAUAGUGCUAAGGGGGCCUGGAAGGUUGGACUGGGCAGAGCUCAACACAGCGUGGCAAAGUGGCUGUGGCUGGACUGCCUCUCUGGAUUCCUCGUCACUCAGCAGGGCAUCUCUGAGAGAAAUGCC [U45G A92G]", "class": "f"}
{"residue_sequence": "UACGUAGGUGGUUUUCCCCUGAUAGUGCUAAGGGGGCCUGGAAGUCUGGACUGGGCAGAGCUCAACACGGCGUGGCAAAGUGGCUGUGGCUAGACUGCCUCUCUGGAUUCCUCGUCACUCAGCAGGGCAUCUCUGAGAGAAAUGCC [U46C A69G]", "class": "f"}
{"residue_sequence": "UACGUAGGUGGUUUUCCCCUGGUAGUGCUAAGGGGGCCUGGAAGUUUGGACUGGGCAGAGCUCAACUCAGCGUGGCAAAGUGGCUGUGGCUAGACUGCCUCUCUGGAUUCCUCGUCACUCAGCAGGGCAUCUCUGAGAGAAAUGCC [A22G A67U]", "class": "f"}
{"residue_sequence": "UACGUAGGUGGUUUUCCCCUGAUAGUGCUAAGGGGGCCUGGAAGUUUGGACUGGGCAGAGCUCAACACAGCGGGGCAAAGUGGCUGUGGCUAGACUGCCUCUCUGGAUUCCUCGUCACUCAGCAGGGCAUCUCUGGGAGAAAUGCC [U73G A136G]", "class": "t"}
{"residue_sequence": "UACGUAGGUGGUUUUCCCCUGAUAGUGCUAAGGGGGCCUGGAAGUUUGGAGUGGGCAGAGCUCAACACAGUGUGGCAAAGUGGCUGUGGCUAGACUGCCUCUCUGGAUUCCUCGUCACUCAGCAGGGCAUCUCUGAGAGAAAUGCC [C51G C71U]", "class": "t"}
